// provenance: patent US20240092922A1

biological target: T1, Histidine-tagged human 4-1BB protein (h4-1BB-His) (human, UniProt Q07011 24-186); experiment: SPR (Biacore T200), antibody on Protein A chip, h4-1BB-His injected;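 also: dissociation phase followed for 300 s, Kd derived as koff divided by kon from the kinetic fit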
T1 construct: not shown: histidine tag
pKd: −log10 of the molar value.
Known pKd of a selection of binders
Readout label: pKd

Binder	Readout label	Recorded number
5F9-H3K4-IgG4 (antibody, V domains shown, humanized) VH: QVQLKESGPGLVKPSETLSITCTVSGFSLTTYDISWVRQPPGKGLEWLGVIWTGGGTNYNSSFMSRVTISKDNSKNQVSLKLSSVTAADTAIYYCERVDYWGQGTTLTVSS VL: DVVMTQSPLSLPVTLGDPASISCRSSQSLVHSNGNTYLHWYLQRPGQSPKLLIYKVSNRFSGVPDRFSGSGSGTAFTFKISRVEAEDVGVYYCSQNTHVPWTFGGGTKLEIK	pKd	7.94
1C4-H4K1-IgG4 (antibody, V domains shown, humanized) VH: QGQMVQSGAEVKKPGASVKLSCKTSGFTFSSSYINWLRQAPGQSLEWIAWIFAGTGGTYYNQKFTGRAQLTVDTSASTAYMELSSLRSEDTAIYYCARHSPRATLFDFWGQGTTLTVSS VL: EIVLTQSPATLSLSPGERATLSCRASSSVNHMHWYQQKPGQAPRALIYATSNLASGIPARFSGSGSGTSFTLTISSLEPEDFAVYYCQQWSSNPYTFGGGTKLEIK	pKd	7.74
69-3C2-mHvKv-IgG2 (antibody, V domains shown) VH: DVQLVESGGGLVQPGGSRKLSCAASGFSFSSFGMHWMRQAPEKGLEWVAYISSGSSAIYYADTVKGRFTISRDNPKNTLFLQMTSLRSEDTAMYYCARDWVDYWGQGTTLTVSS VL: DIQMTQSPASLSVSVGETVTITCRASENIYSNLVWYQQKQGKSPQLLVYTATKLTNGVPSRFSGSGSGTQYSLKINSLQSEDFGTYYCQHFWDTPYTFGGGTKLEMK	pKd	9.35
6A5-H2K2-IgG2 (antibody, V domains shown, humanized) VH: QVQLVQSGAEVKKPGSSVKLSCKASGYTFSSYWINWVRQAPGQGLEWIGNIYPSDSYTNYNQKFKDRATLTVDKSTSTAYMELSSLRSEDTAVYYCTRTWEFYYDSVFDYWGQGTLVTVSS VL: DIQMTQSPSSLSASLGERVTITCKASQDINSYLSWYQQKPGKAPKTLIYRANRLVDGVPSRFSGSGSGQDFTLTISSLQPEDIATYYCLQYDELPPTFGGGTKVEIK	pKd	9.55
54-8B11-mHvKv-IgG2 (antibody, V domains shown) VH: QIQLVQSGPELKKPGETVKISCKASKFTFTNYGMNWVKQAPGKALKWMGWINTYTGEPTYADDFKGRFDFSLETSATTAYLQINNLKNEDTATYFCARREYYPWVFVYWGQGTLVTVSA VL: ENVLTQSPAIMSASPGEKVTMTCSASSSVSYMHWYQQKSSTSPKLWIYDTSKLASGVPGRFSGSGSGNSYSLTISSMEAEDVATYYCFQGSGYPLTFGGGTKLEIK	pKd	7.92
